# assay_text: NCI Yeast Anticancer Drug Screen. Data for the rad50 strain (AID 155);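 also: 0% = growth of vehicle-only cultures of the same strain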
# condition_summary: S. cerevisiae rad50 strain growth inhibition; at 3.7 µM; hits give high values
About 79,000 compounds went through this panel and 15% of them were active in at least one assay; those are over-represented in the sample as a whole.
measure: growth inhibition (%)
Write the number in % without appending the unit.

Lab note: measured growth inhibition of CCOc1ccc2ccc3cccnc3c2n1 was 12

Per the record, CC[N+]1(C)CCC(O)(/C=C/c2ccc(Cl)c(Cl)c2)C(C(=O)/C=C/c2ccc(Cl)c(Cl)c2)C1 (stereo not given) has growth inhibition of 52

What the record says about O=S(=O)(CCC[C@H]1[C@@H](CCOCc2ccccc2)C2CCCN1O2)c1ccccc1 (stereo not given in full) : growth inhibition is -13

Sample COc1ccc(C(=O)NCCN(C)C)c2nc3ccccc3cc12 ; growth inhibition observed: 77

Kindly note the recorded growth inhibition for N#C/C(=C1C=C/C(=N\O)C(Cl)=C\1)c1ccccc1 , which is 3

Item: Cc1nc2ccc(Br)cc2c(=O)n1-c1ccc(NC2OCC(O)C(O)C2O)cc1 (stereo not given) | growth inhibition: 17

Notebook: c1cc2ccc3cc4ncccc4c4ccc(c1)c2c34 , growth inhibition read as 13

Per the record, O=C(CCC(=O)c1ccc(O)cc1)Oc1ccc(O)cc1 has growth inhibition of 4

Per the record, CN(C)N1C(=O)SCC(c2ccccc2)(c2ccccc2)C1=O has growth inhibition of 7

Entry Cn1c(COc2ccc(/C=N/NC(=O)CCC(=O)N/N=C/c3ccc(OCc4c[n+]5ccccc5n4C)cc3)cc2)c[n+]2ccccc12 , growth inhibition reported as 2

----------
I'd be grateful if you could share measured growth inhibition for these entries.
# assay_text: NCI Yeast Anticancer Drug Screen. Data for the mlh1 rad18 strain (AID 175)
# condition_summary: S. cerevisiae mlh1 rad18 strain growth inhibition; at 5.0 µM (retest, dose inferred, filed as 0.5); hits give high values
Compounds without any hit were thinned out: in the full panel of roughly 79,000, 15% have a hit. Active and inactive are the calls of the source. Cut-off read from the data, not from the text of the source: active = growth inhibition above about 70%; inactive = the rest.

Summary for this molecule, CN(Cc1cccc2ccccc12)Cc1cccc2ccccc12 : growth inhibition is -10% (inactive)

The measured growth inhibition associated with Cn1c(COc2ccc(/C=N/NC(=O)CCC(=O)N/N=C/c3ccc(OCc4c[n+]5ccccc5n4C)cc3)cc2)c[n+]2ccccc12 reads -15% (inactive)

What the record says about CC(=O)CC[N+](C)(C)C : growth inhibition is 26% (inactive)

For this molecule ( CCN(CC)CCSc1c2ccccc2nc2cc(NCC(=O)Nc3ccccc3-c3ccccc3NC(=O)CNc3ccc4c(SCCN(CC)CC)c5ccccc5nc4c3)ccc12 ), measured growth inhibition is 42% (inactive)

Value of growth inhibition reported for the molecule COc1cc(C(C)C(C(=O)O)C(=O)C(=O)O)cc(OC)c1OC (stereo unspecified) is -3% (inactive)

Sure, the documented growth inhibition for O=[N+]([O-])c1ccc2nnnn2c1 is 78% (active)

----------
# assay_text: NCI Yeast Anticancer Drug Screen. Data for the rad18 strain (AID 177)
# condition_summary: S. cerevisiae rad18 mutant growth inhibition; at 11.0 µM
About 79,000 compounds went through this panel and 15% of them were active in at least one assay; those are over-represented in the sample as a whole. Calls of active or inactive are those of the source. Cut-off read from the data, not from the text of the source: active = growth inhibition above about 70%; inactive = the rest.
Select the correct class. Options are active, inactive and nothing else.

What classification did Cc1[nH]nc(C(F)(F)F)c1N=NN(C)C end up with in this test? active

Please let me know the test result on file for CCOC(=O)/C=C1\CCCn2c1ncc(C(=O)OCC)c2=O . inactive

Entry O=C1OC(/C=C/c2ccccc2)Sc2ccccc21 (stereo not drawn) : call = ? inactive

# fetch the recorded call for CCCC#CCOC(=O)c1cc([N+](=O)[O-])cc([N+](=O)[O-])c1 here active

I'd appreciate the recorded outcome for C#CC1=CC(=O)C(OC)=CC1=O from this test. active

Which outcome was assigned to CN(C)c1ccc(/C=C/c2ccnc3ccc4ccccc4c23)cc1 in this test? active

GET /call?item= CCCCCCC(CCl)c1sc(-c2csc(CCNC(=O)OC(C)(C)C)n2)nc1C(=O)OC (stereo not drawn) returns the recorded outcome of this test. inactive

What outcome does the record of this test show for COc1cc(C(C)(C)C)cc(OC)c1C(O)(c1c(OC)cc(C(C)(C)C)cc1OC)c1c(OC)cc(C(C)(C)C)cc1OC ? active

Please indicate how the test categorized CNc1ccc2[nH]c3ccccc3c2c1 . inactive

Look up the recorded call for Oc1ccc(Br)cc1C=Nc1cccc(C(F)(F)F)c1 in this test. inactive

Each compound tested received a call. Report the one for CN(C)/N=N/c1nc[nH]c1C(N)=O . inactive

Could you please tell me the result logged for COC(=O)C1(N2CCOCC2)CCC([C@@H](c2ccccc2)C(C)[N+](=O)[O-])C1 (stereo partly drawn) in this assay? inactive

Per the records of this test, what outcome belongs to CC(=O)c1ccc(NCN2C(=O)c3ccccc3C2=O)cc1 ? inactive

Can you look up the reported call for BrC/C=C/C[P+](c1ccccc1)(c1ccccc1)c1ccccc1 for me? active

Would you mind telling me which call this test gave Cc1cnc(/C=N\NC(N)=S)c2cccc(N)c12 ? inactive

Given CC(C)(C)[Si](C)(C)OCC1OC(n2cnc3c(N)ncnc32)C2OC(=S)OC12 (stereo not drawn) , state the outcome it received in this test. inactive

Just curious, what result did Cc1cccc(N2CCN(C(=O)/C(=C/c3ccccc3)NC(=O)c3ccccc3)CC2)c1 get here? inactive

Recorded test call requested for CN(C)CCn1c2ccccc2c2nc3cc4ccccc4cc3nc21 inactive

Recorded test outcome, item CCOC(=O)c1sc2[n+](c1C)C(=O)/C(=C/c1cc(OC)c(OC)c(OC)c1)S2 inactive

Check the results log: what was the call for COC1=C(N=[N+]=[N-])C(=O)c2ncccc2C1=O ? active

How did this test come out for C[Si](C)(C)Cc1ccccc1C(=O)O ? inactive

Short answer needed: outcome of this test for Nc1ccc2ncc(Nc3ccc(Cl)c(Cl)c3)nc2c1 ? inactive

In this assay, the call recorded for CCc1nc2ccc(N=Nc3c(O)ccc4ccccc34)cc2[nH]1 was what? inactive
